phosphorylation enrichment values for the sequences below.
biological target: Fes (UniProt P07332); assay: phosphorylation enrichment, bacterial display (enrichment ratio); higher = better substrate or ligand; peptides without Tyr show the background;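 further: 11-residue human phosphosite peptides and single-mutation variants displayed on the E. coli surface, counted by deep sequencing, each peptide's frequency after selection divided by its frequency in the unselected input library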;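 further: frequency after pTyr selection over input frequency; kinase dosed for 20-30% of maximal phosphorylation in three min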
Sequence (P07332 whole entry, looked up): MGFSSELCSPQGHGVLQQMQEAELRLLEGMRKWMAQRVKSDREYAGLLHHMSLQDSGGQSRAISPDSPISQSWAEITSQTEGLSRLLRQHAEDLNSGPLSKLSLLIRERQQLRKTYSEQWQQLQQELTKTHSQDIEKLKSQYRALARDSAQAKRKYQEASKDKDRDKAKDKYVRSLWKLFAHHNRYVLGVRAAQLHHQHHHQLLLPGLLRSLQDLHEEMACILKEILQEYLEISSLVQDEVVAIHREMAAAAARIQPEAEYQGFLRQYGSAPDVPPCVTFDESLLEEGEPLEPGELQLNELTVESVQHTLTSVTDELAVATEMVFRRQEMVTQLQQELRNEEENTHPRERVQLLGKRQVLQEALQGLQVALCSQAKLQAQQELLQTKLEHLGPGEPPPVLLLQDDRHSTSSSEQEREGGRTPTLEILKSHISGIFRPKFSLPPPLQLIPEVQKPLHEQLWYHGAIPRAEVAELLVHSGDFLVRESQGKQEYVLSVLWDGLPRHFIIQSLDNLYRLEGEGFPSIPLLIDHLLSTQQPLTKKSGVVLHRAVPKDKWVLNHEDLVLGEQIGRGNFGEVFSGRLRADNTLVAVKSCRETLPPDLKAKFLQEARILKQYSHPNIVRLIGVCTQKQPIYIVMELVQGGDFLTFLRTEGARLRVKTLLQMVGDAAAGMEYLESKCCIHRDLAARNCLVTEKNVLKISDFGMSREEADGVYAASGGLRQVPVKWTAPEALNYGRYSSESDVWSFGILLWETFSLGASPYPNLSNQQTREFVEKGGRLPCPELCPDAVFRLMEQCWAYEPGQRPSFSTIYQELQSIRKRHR
Form rule: numeric answer, no unit written next to it.

Reference set (10 entries):
{"residue sequence": "RSRQIYDAYIM [GRK3_Y109]", "phosphorylation enrichment": 0.807}
{"residue sequence": "DEEPPHRGPFC [SASH1_Y551_Y551H]", "phosphorylation enrichment": 1.06}
{"residue sequence": "SEKISYVYMKR [SSX7_Y48_L43S]", "phosphorylation enrichment": 0.967}
{"residue sequence": "LFSGDYFRIQG [DDR2_Y740_YF]", "phosphorylation enrichment": 2.04}
{"residue sequence": "SLQFEYVHYGG [CDC14A_Y591_S589F]", "phosphorylation enrichment": 0.904}
{"residue sequence": "EGDGVYTLNNK [HP_Y125_E130K]", "phosphorylation enrichment": 0.857}
{"residue sequence": "RLSARYFQGDL [PDK3_Y337_Y334S]", "phosphorylation enrichment": 0.684}
{"residue sequence": "YLAAIYPTVGQ [NF1_Y2508_T2507I]", "phosphorylation enrichment": 0.89}
{"residue sequence": "SVTCTYSPVLN [TP53_Y126_A129V]", "phosphorylation enrichment": 1.6}
{"residue sequence": "EQRRAYLEGTC [HLA-C_Y183_L180R]", "phosphorylation enrichment": 1.01}

In: Could you share what phosphorylation enrichment was measured for IEPCIYIPEDD [XPNPEP3_Y455_G453C] , tested on Fes (UniProt P07332)?
Out: 1.47

In: Could you share what phosphorylation enrichment was measured for VSNFNYFYHRE [KCNA1_Y413] , tested on Fes (UniProt P07332)?
Out: 0.999

In: Could you share what phosphorylation enrichment was measured for LQFKNYQQLFD [MAN2A1_Y442] , tested on Fes (UniProt P07332)?
Out: 0.985

In: Could you share what phosphorylation enrichment was measured for GLAKEYIDPET [CSNK1G2_Y195] , tested on Fes (UniProt P07332)?
Out: 0.941
